substrate: CCCCCCC=O; assay: purified protein; type: biochemical, Synechococcus elongatus; conditions: NADH 750 uM, PMS 75 uM, catalase 1 mg/ml, ferrous ammonium sulfate 80 uM, 100 mM HEPES pH 7.2, 100 mM KCl
Below is a list of entries, each paired with its recorded kcat/Km value.
metric.name: kcat/Km (M⁻¹ s⁻¹)

protein	metric.name	assay.value
cADO-1593 (1593) (Synechococcus elongatus PCC 7942 = FACHB-805; F150Y) (protein, codon-optimised synthetic gene, E. coli BL21(DE3), nickel column; apo enzyme reconstituted with stoichiometric ferrous iron (diferrous form)) MPQLEASLELDFQSESYKDAYSRINAIVIEGEQEAFDNYNRLAEMLPDQRDELHKLAKMEQRHMKGFMACGKNLSVTPDMGFAQKFFERLHENFKAAAAEGKVVTCLLIQSLIIECFAIAAYNIYIPVADAFARKITEGVVRDEYLHRNYGEEWLKANFDASKAELEEANRQNLPLVWLMLNEVADDARELGMERESLVEDFMIAYGEALENIGFTTREIMRMSAYGLAAV	kcat/Km	62.5
cADO-1593 (1593) (Synechococcus elongatus PCC 7942 = FACHB-805; W178R) (protein, codon-optimised synthetic gene, E. coli BL21(DE3), nickel column; apo enzyme reconstituted with stoichiometric ferrous iron (diferrous form)) MPQLEASLELDFQSESYKDAYSRINAIVIEGEQEAFDNYNRLAEMLPDQRDELHKLAKMEQRHMKGFMACGKNLSVTPDMGFAQKFFERLHENFKAAAAEGKVVTCLLIQSLIIECFAIAAYNIYIPVADAFARKITEGVVRDEYLHRNFGEEWLKANFDASKAELEEANRQNLPLVRLMLNEVADDARELGMERESLVEDFMIAYGEALENIGFTTREIMRMSAYGLAAV	kcat/Km	88.7
cADO-1593 (1593) (Synechococcus elongatus PCC 7942 = FACHB-805; L146T) (protein, codon-optimised synthetic gene, E. coli BL21(DE3), nickel column; apo enzyme reconstituted with stoichiometric ferrous iron (diferrous form)) MPQLEASLELDFQSESYKDAYSRINAIVIEGEQEAFDNYNRLAEMLPDQRDELHKLAKMEQRHMKGFMACGKNLSVTPDMGFAQKFFERLHENFKAAAAEGKVVTCLLIQSLIIECFAIAAYNIYIPVADAFARKITEGVVRDEYTHRNFGEEWLKANFDASKAELEEANRQNLPLVWLMLNEVADDARELGMERESLVEDFMIAYGEALENIGFTTREIMRMSAYGLAAV	kcat/Km	46
